biological target: T1, human Claudin18.2 (human); test: cell ELISA, Claudin18.2-expressing HEK293T cells
T1 construct: also called CLDN18.2
List of EC50 values.
parameter-measured: EC50

binder	result
234A10F7 (antibody, V domains shown, mouse hybridoma mAb) VH: QVQLQQSGAELVKPGASVKLSCKASGYTFTSFGINWLRQRPEQGLEWIGWIFPGDGNSKYNENFKGKATLTTDKSSSTAYMQLTRLTSEDSAVYFCARFYYGNSFAYWGQGTLVTVSA VL: DIVMTQSPSSLTVTTGQKVTMSCKSSQSLLNSGNQKNYLTWYQQKPGQPPKLLIYWAATRESGVPDRFTGSGSGTDFTLTISSVQAEDLAVYYCQNDYFYPFTFGAGTKLELK	0.857 nM
259B4D4 (antibody, V domains shown, mouse hybridoma mAb) VH: EIQLQQSGPELMKPGASVRISCKASGYSFTSYYMHWMKQSHVKSLEWIGYIDPFNGNTRYNQKFKDKATLTVDKSSTTAYMHLSSLTSEDSAVYFCASLRFFAYWGQGTLVTVSA VL: DIVMTQSPSSLTVTAGEKVTMSCNSSQSLLNSGNQKNYLTWYQQKPGQPPKLLIYWASSRESGVPDRFTGSGSGTDFTLTISTVQAEDLAVYYCQNDYSFPLTFGAGTRLELK	~0.378 nM
406F11G8 (antibody, V domains shown, mouse hybridoma mAb) VH: DVQLVESGGGLVQPGGSRKLSCAASGFTFSSFGMHWVRQAPEKGLEWVAYISSGSSPIYYADTVKGRFTISRDNSKNTLFLQMTSLRSEDTAMYFCARIYYGNSFAYWGQGTLVTVSA VL: DIVMTQSPSSLTVTAGEKVAMSCKSSQTLLNSGNQKNYLTWYQQKPGQPPKLLIYWASTRESGVPDRFTGSGSGTDFTLTISSVQAEDLAVYYCQNAYYYPLTFGSGTKLELK	1.83 nM
